The following compounds are listed with their measured composite z-score values.
Assay: small-molecule microarray binders of probe aNog, primary screen, biochemical, biotinylated probe, 635/667 nm fluorescence (AID 1115);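 note: probe is biotinylated aNog protein used at 0.15 µg/mL for 1 h at 4 C; z-score combines 667 nm fluorescence of each spot with its signal to noise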
Conditions: higher = more signal
Form: value (number only, do not type unit).

Need composite z-score of COC(=O)CC=C[C@@H](C)[C@H](OC)c1ccccc1Br , thanks.
-0.482

Next: COCCOC(=O)N1C(=O)[C@@]2(c3cc(C#Cc4ccc(OC)cc4)ccc31)[C@H](C(=O)N1CCN(c3ncccn3)CC1)[C@H]1C(=O)O[C@H](c3ccccc3)[C@H](c3ccccc3)N1[C@@H]2c1ccc(OCCO)cc1
1.26

Continue with Cc1cc2c(nc1C)CCCN2CC(O)CN1CCN(C)CC1 (centres undefined)
-0.23

Continue with the next compound.
Recorded composite z-score for CC(=O)OC[C@H]1O[C@H](CCON=C[C@@H](C)[C@H](OCc2ccccc2)C(C)C)C=C[C@@H]1OC(C)=O , please?
-0.215
